assay: ACEA_AR_agonist_AUC_viability: ACEA Biosciences xCELLigence Real-Time Cell Analysis on Androgen Receptor Agonism for Viability (AID 2283775)
Records with an inconclusive call do not appear. The source made the active and inactive calls. How the source made its calls: active means hit-call score of the fitted dose curve at least 0.9, where 1 is the maximum; inconclusive means response in the unintended direction; inactive means score below 0.9.
Outcomes: 1.0 (active), 0.0 (inactive)

molecule	assigned_class
CCN(CC)c1ccc2c(-c3ccccc3C(=O)O)c3ccc(=[N+](CC)CC)cc-3oc2c1	1.0
CCCCCCCCC=O	0.0
c1ccc(CCCc2ccccn2)cc1	0.0
COc1c(Cl)c(Cl)c(Cl)c(Cl)c1Cl	0.0
CCCCCCCCCC=O	0.0
CCCCCCCCCCCCCCCC(=O)OC[C@H](O)[C@H]1OC(=O)C(O)=C1O	0.0
CC1(C)C(=O)N(Br)C(=O)N1Cl	0.0
CCCCC[Si](OCC)(OCC)OCC	0.0
CC1(C)[C@@H]2CC[C@@]1(C)[C@H](O)C2	0.0
CC(C)(C)C(=O)c1ccccc1	0.0
O=C(O)CCCCCCCC(=O)O	0.0
CCCCCCCCC	0.0
CCCCCCCCCCC(CO)CCCCCCCC (centres undefined)	1.0
CC(C)=CCCC(C)CC=O (centres undefined)	0.0
